# assayed-target: PTRGER4 (EP4) (Homo sapiens (Human), UniProt P35408)
# Sequence (P35408 whole entry, looked up): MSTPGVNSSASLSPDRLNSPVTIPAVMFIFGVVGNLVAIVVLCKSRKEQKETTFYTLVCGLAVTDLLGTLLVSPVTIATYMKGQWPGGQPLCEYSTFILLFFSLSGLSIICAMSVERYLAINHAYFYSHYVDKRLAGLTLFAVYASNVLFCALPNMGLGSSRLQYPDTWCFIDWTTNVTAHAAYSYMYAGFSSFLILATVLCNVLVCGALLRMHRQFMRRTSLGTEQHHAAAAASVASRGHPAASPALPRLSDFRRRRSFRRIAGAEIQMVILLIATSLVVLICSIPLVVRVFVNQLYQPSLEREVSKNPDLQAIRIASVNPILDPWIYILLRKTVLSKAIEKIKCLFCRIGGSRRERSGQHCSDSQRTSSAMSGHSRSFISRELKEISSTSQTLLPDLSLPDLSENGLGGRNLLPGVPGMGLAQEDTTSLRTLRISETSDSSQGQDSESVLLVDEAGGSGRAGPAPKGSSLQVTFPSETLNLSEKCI
# run-description: hEP4 b-arrestin assay (PathHunter HEK 293 PTGER4 b-arrestin cells)
# Format: cell-based
# conditions: hEP4 b-arrestin assay (values without asterisk)
# Description: The assay is using the PathHunter™ HEK 293 PTGER2 and PTGER4 b-arrestin cell lines from DiscoverX. The system is based on the Enzyme Fragment Complementation Technology. Two complementing fragments of the b-galactosidase enzyme are expressed within stably transfected cells. […] Twelve μl of reagent are transferred to the assay plate and incubate for 1 hour at room temperature in the dark. Luminescence counts are read on a BMG Fluostar Optima reader according to manufacturer's instructions. […]
quantity-name: pIC50
In textbook form, pIC50 equals minus log to base ten of the concentration in mol/L.

COc1ccc(F)c2c1cc(C#N)n2CCNc1cc(-c2cc3ccc(C(=O)O)cc3[nH]2)ncn1	7.41
COc1ccc(F)c2c1cc(C)n2CCNc1cc(-c2ccc(C(=O)O)c(OCC(F)(F)F)c2)ncn1	6.85

Suppose we examine the compound CCOc1cc(-c2cc(NCCn3c(C)cc4c(OC)ccc(F)c43)ncn2)[nH]c1C(=O)O ; what pIC50 value has been reported?
6.45

Suppose we examine the compound COc1ccc(F)c2c1cc(C)n2CCNc1cc(-c2cc(C(F)(F)F)c(-c3noc(=O)[nH]3)s2)ncn1 ; what pIC50 value has been reported?
7.89

Suppose we examine the compound COc1cc(F)cc2c1cc(C#N)n2CCNc1cc(-c2ccc(C(=O)O)c(SC(C)C)c2)ncn1 ; what pIC50 value has been reported?
7.54

----------
# assayed-target: UniProt P35408
# run-description: hEP4 b-arrestin assay (PathHunter HEK 293 PTGER4 b-arrestin cells)
# Format: cell-based
# conditions: hEP4 b-arrestin assay (values without asterisk)
Entries and their measured pIC50 follow.
In textbook form, pIC50 equals minus log to base ten of the concentration in mol/L.

COc1ccc(F)c2c1cc(C#N)n2CCNc1cc(-c2ccc(-c3nc(=O)[nH]o3)cc2)ncn1	7.77
COc1ccc(F)c2c1cc(C#N)n2CCNc1cc(-c2ccc(-c3cc(O)no3)cc2)ncn1	7.66
COc1ccc(F)c2c1cc(C#N)n2CCNc1cc(-c2ccc3c(=O)n(C)[nH]c3c2)ncn1	7.17
COc1ccc(F)c2c1cc(C#N)n2CCNc1cc(-c2ccnc(C(F)(F)F)c2)ncn1	7.17
COc1cc(F)cc2c1cc(C)n2CCNc1cc(-c2cc(O)c(C(=O)O)s2)ncn1	7.36

Suppose we examine the compound CCOc1cc(-c2cc(NCCn3c(C)c(F)c4c(OC)ccc(F)c43)ncn2)sc1C(=O)O ; what pIC50 value has been reported?
8.05

Suppose we examine the compound COc1ccc(F)c2c1cc(C#N)n2CCNc1cc(-c2cnc3[nH]ccc3c2)ncn1 ; what pIC50 value has been reported?
7.82

Suppose we examine the compound COc1ccc(F)c2c1cc(C#N)n2CCNc1cc(-c2ccc(CCC(=O)O)cc2)ncn1 ; what pIC50 value has been reported?
6.78

Suppose we examine the compound CCOc1cc(-c2cc(NCCn3c(C)cc4c(OC)cc(Cl)cc43)ncn2)sc1C(=O)O ; what pIC50 value has been reported?
7.80

Suppose we examine the compound CCOc1cc(-c2cc(NCCn3c(C)cc4c(OC)ccc(F)c43)ncn2)ccc1NC(C)C(=O)O (racemic) ; what pIC50 value has been reported?
7.36

----------
# assayed-target: PTGER2 (EP2) (Homo sapiens (Human), UniProt P43116)
# Sequence (P43116 whole entry): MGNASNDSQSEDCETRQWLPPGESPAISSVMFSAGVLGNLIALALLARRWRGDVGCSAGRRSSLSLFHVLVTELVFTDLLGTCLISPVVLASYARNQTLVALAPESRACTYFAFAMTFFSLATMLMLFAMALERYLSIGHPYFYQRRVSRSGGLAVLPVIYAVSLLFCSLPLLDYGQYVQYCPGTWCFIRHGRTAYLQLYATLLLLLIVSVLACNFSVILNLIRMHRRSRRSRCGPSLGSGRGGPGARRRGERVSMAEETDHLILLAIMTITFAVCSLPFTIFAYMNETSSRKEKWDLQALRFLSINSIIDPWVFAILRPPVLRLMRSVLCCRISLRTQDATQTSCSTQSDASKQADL
# run-description: hEP2 b-arrestin assay (PathHunter HEK 293 PTGER2 b-arrestin cells)
# Assay type: cell-based
# conditions: antagonistic activity on hEP2; mean where measured multiple times
Entries and their measured pIC50 follow.
In textbook form, pIC50 equals minus log to base ten of the concentration in mol/L.

A selection of reference data follows.
CCOc1cc(-c2cc(NCCn3c(C)cc4c(C)ccc(F)c43)ncn2)ccc1C(=O)O	7.41
COc1cc(F)c(F)c2c1cc(C)n2CCNc1cc(-c2ccc(-c3ncno3)cc2)ncn1	8.00
CCOc1cc(-c2cc(NCCn3c(C)cc4c(OC)ccc(F)c43)ncn2)sc1C(=O)O	9.00
COc1ccc(Cl)c2c1cc(C)n2CCNc1cc(-c2ccc3[nH]c(C)nc3c2)ncn1	6.62
CCCc1cc(-c2cc(NCCn3c(C)cc4cc(Cl)cc(F)c43)ncn2)ccc1C(=O)O	7.05

Suppose we examine the compound Cc1cc(-c2cc(NCCn3c(C)cc4c(C)ccc(F)c43)ncn2)cc(Cl)c1C(=O)O ; what pIC50 value has been reported?
7.52

Suppose we examine the compound COc1cc(F)c(F)c2c1cc(C)n2CCNc1cc(-c2ccc(-c3c[nH]cn3)cc2)ncn1 ; what pIC50 value has been reported?
7.60

Suppose we examine the compound CCN1Cc2cc(-c3cc(NCCn4c(C)cc5c(OC)ccc(F)c54)ncn3)ccc2C1=O ; what pIC50 value has been reported?
7.17

Suppose we examine the compound CCCC1NC(=O)c2ccc(-c3cc(NCCn4c(C)cc5c(C)ccc(F)c54)ncn3)cc21 (racemic) ; what pIC50 value has been reported?
7.26

Suppose we examine the compound CCc1cc(-c2cc(NCCn3c(C)cc4c(C)cc(F)cc43)ncn2)cc(Cl)c1C(=O)O ; what pIC50 value has been reported?
7.15

----------
# assayed-target: PTRGER4 (EP4) (Homo sapiens (Human))
# run-description: hEP4 b-arrestin assay (PathHunter HEK 293 PTGER4 b-arrestin cells)
# Type: cell-based
# conditions: antagonistic activity on hEP4; mean where measured multiple times
# Protocol: The assay is using the PathHunter™ HEK 293 PTGER2 and PTGER4 b-arrestin cell lines from DiscoverX. The system is based on the Enzyme Fragment Complementation Technology. Two complementing fragments of the b-galactosidase enzyme are expressed within stably transfected cells. […] Twelve μl of reagent are transferred to the assay plate and incubate for 1 hour at room temperature in the dark. Luminescence counts are read on a BMG Fluostar Optima reader according to manufacturer's instructions. […]
Entries and their measured pIC50 follow.
In textbook form, pIC50 equals minus log to base ten of the concentration in mol/L.

A selection of reference data follows.
Cc1cc(-c2cc(NCCn3c(C)cc4c(C)ccc(F)c43)ncn2)ccc1C(=O)O	6.27
COc1ccc(Cl)c2c1cc(C)n2CCNc1cc(-c2cc(F)c(C(=O)O)s2)ncn1	6.78
COc1cccc2c1cc(C)n2CCNc1cc(-c2ccc3nc(C)oc3c2)ncn1	6.54
CCCc1cc(-c2cc(NCCn3c(C)cc4c(F)ccc(Cl)c43)ncn2)cc(F)c1C(=O)O	6.19
CCOc1cc(-c2cc(NCCn3c(C)cc4c(Cl)cccc43)ncn2)ccc1C(=O)O	6.60
Cc1ccc(F)c2c1cc(C)n2CCNc1cc(-c2ccc(-c3ncc[nH]3)cc2)ncn1	6.12
COc1cccc2c1cc(C)n2CCNc1cc(-c2ccc(Cn3cccn3)c(F)c2)ncn1	6.37
CCNc1cc(-c2cc(NCCn3c(C)cc4c(F)ccc(C)c43)ncn2)ccc1C(=O)O	6.29
COc1cc(-c2cc(NCCn3c(C)cc4c(C)ccc(F)c43)ncn2)ccc1CO	6.61
CNc1nnc(-c2ccc(-c3cc(NCCn4c(C)cc5ccccc54)ncn3)cc2)s1	6.25

Suppose we examine the compound COc1ccc(F)c2c1cc(C)n2CCNc1cc(-c2ccc(CO)c(C)c2)ncn1 ; what pIC50 value has been reported?
6.79

Suppose we examine the compound Cc1cc(F)c(F)c2c1cc(C)n2CCNc1cc(-c2ccc3c(c2)CC(=O)N3)ncn1 ; what pIC50 value has been reported?
6.32

----------
# assayed-target: EP4 (Homo sapiens (Human), UniProt P35408)
# Sequence (P35408 whole entry): as the sequence (P35408 whole entry, looked up) above
# run-description: hEP4 cAMP assay (BT549 breast cancer cells, HTRF cAMP)
# Format: cell-based
# conditions: antagonistic activity; mean values where measured multiple times
Entries and their measured pIC50 follow.
In textbook form, pIC50 equals minus log to base ten of the concentration in mol/L.

A selection of reference data follows.
COc1cc(F)cc2c1cc(C)n2CCNc1cc(-c2ccc(-c3nc(C)cs3)cc2)ncn1 [Example 758]	6.95
CCOc1cc(-c2cc(NCCn3c(C)cc4c(OC)cccc43)ncn2)cc(F)c1C(=O)O [compound 407]	6.20
COc1ccc(F)c2c1cc(C)n2CCNc1cc(-c2ccc(-c3oncc3C)cc2)ncn1 [compound 737]	6.81
COc1cc(-c2cc(NCCn3c(C)cc4c(OC)cccc43)ncn2)ccc1-c1nnn[nH]1 [compound 670]	6.39
CCCOc1cc(-c2cc(NCCn3c(C)cc4c(C)cc(F)c(F)c43)ncn2)cc(F)c1C(=O)O [compound 627]	6.71
Cc1cc2ccccc2n1CCNc1cc(-c2ccc(-c3nccs3)cc2)ncn1 [Example 764]	6.09
CCCc1cc(-c2cc(NCCn3c(C)cc4c(OC)cc(F)cc43)ncn2)cc(F)c1C(=O)O [compound 521]	7.19

Shift focus to the following entry.
Suppose we examine the molecule Cc1ccc(F)c2c1cc(C)n2CCNc1cc(-c2ccc(-c3cnc(CCC(=O)O)o3)cc2)ncn1 [compound 643] ; what pIC50 value has been reported?
6.15

Hello, the source for this data is patent US12011444B2, in case you need it.
